Target: T1, human CD25 (human, UniProt P01589 22-213, limits assumed)
T1 construct: Recombinant soluble human CD25, coated on plates (ELISA) or injected over captured antibody (BIAcore); also called hCD25; IL2-R alpha
T1 sequence (looked up): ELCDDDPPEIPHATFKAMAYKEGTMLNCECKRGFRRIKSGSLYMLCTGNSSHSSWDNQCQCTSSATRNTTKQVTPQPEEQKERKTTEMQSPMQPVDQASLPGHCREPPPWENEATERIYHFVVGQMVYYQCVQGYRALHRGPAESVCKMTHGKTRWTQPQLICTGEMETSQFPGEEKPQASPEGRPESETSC
Assay: competition ELISA vs biotinylated daclizumab, fold over wild type
Property Label: ELISA fold improvement (fold)
Expressed in fold, but write only the number.

Binder | ELISA fold improvement [fold]
Variant C11 (antibody, name in Kabat numbering, V domains shown, Isotype as printed: G1 fa) VH: QVQLVQSGAEVKKPGSSVKVSCKASGYTFTSYRMHWVRQAPGQGLEWIGYISPKRGYTQYNQKFKDKATITADESTNTAYMELSSLRSEDTAVYYCARGGGVFDYWGQGTLVTVSS VL: DIQMTQSPSTLSASVGDRVTITCSASSSISYMHWYQQKPGKAPKLLIYTTSNLASGVPARFSGSGSGTEFTLTISSLQPDDFATYYCHQRSTYPLTFGQGTKVEVK | 3.47
Variant C12 (antibody, name in Kabat numbering, V domains shown, Isotype as printed: G1 fa) VH: QVQLVQSGAEVKKPGSSVKVSCKASGYTFTSYRMHWVRQAPGQGLEWIGYISPRRGYTQYNQKFKDKATITADESTNTAYMELSSLRSEDTAVYYCARGGGVFDYWGQGTLVTVSS VL: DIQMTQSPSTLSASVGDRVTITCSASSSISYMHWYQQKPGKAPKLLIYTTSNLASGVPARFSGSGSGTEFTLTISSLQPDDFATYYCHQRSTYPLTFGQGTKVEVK | 3.98
Variant C9 (antibody, name in Kabat numbering, V domains shown, Isotype as printed: G1 fa) VH: QVQLVQSGAEVKKPGSSVKVSCKASGYTFTSYRMHWVRQAPGQGLEWIGYIRPKRGYTQYNQKFKDKATITADESTNTAYMELSSLRSEDTAVYYCARGGGVFDYWGQGTLVTVSS VL: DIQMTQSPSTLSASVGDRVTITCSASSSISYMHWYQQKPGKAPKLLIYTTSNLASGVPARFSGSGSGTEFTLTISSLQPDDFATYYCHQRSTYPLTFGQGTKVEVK | 3.97

Now look at this one.
Reported ELISA fold improvement ( Variant C10 (antibody, name in Kabat numbering, V domains shown, Isotype as printed: G1 fa) VH: QVQLVQSGAEVKKPGSSVKVSCKASGYTFTSYRMHWVRQAPGQGLEWIGYIRPRRGYTQYNQKFKDKATITADESTNTAYMELSSLRSEDTAVYYCARGGGVFDYWGQGTLVTVSS VL: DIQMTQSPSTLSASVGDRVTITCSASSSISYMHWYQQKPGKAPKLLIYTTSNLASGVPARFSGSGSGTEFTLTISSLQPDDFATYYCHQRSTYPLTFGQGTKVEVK ) = 3.91
